These entries and their values trace back to ChEMBL document CHEMBL4033711.

# Tested on: Liver
# method-summary: Intrinsic clearance in human liver microsomes assessed per gram of protein at 0.1 uM in presence of NADPH by HPLC-MS/MS analysis
# Assay type: ADME, microsome
measurement-type: CLint

INSERT INTO results (smiles_record, tested_system, measurement_type, observed_result) VALUES
  ('COc1ccc(-c2csc(N/N=C3\CC(=O)c4ccccc43)n2)cc1OC', 'Liver', 'CLint', '22.4 mL/min/g protein');
